# System: M17—3TAU(P301L) cells
# assay-summary: Neuroblastoma tauopathy model: inhibition of TAU-induced cytotoxicity (LDH)
# Assay type: cell-based
# measurement-setup: Homo sapiens, 168 h; inhibition of TAU-induced toxicity (LDH), 7 days differentiation with retinoic acid
quantity-kind: pEC50
Give bare numbers, as −log10 of the molar value.

Below: 5 compounds and their reported pEC50.
{"compound": "COc1ccc(-c2nsc(N3CCN(CCc4cccc(OC)c4)CC3)n2)cc1", "pEC50": 7.30}
{"compound": "Cc1ccccc1CN1CCN(c2nc(-c3cccc(F)c3)ns2)CC1", "pEC50": 6.57}
{"compound": "Fc1ccc(-c2nsc(N3CCN(CCc4ccc(Cl)cc4)CC3)n2)cc1F", "pEC50": 7.95}
{"compound": "COc1cc(CCN2CCN(c3nc(-c4ccc(Cl)cc4)ns3)CC2)ccn1", "pEC50": 7.87}
{"compound": "Cc1ncc(-c2nsc(N3CCN(CCc4ccc(F)c(F)c4)CC3)n2)cn1", "pEC50": 6.72}

For each of the compounds below, state pEC50.
1. COc1ccc(CC(C)N2CCN(c3nc(-c4ccc(Cl)cc4)ns3)CC2)cc1 (stereo not drawn)
2. COc1cccc(CCN2CCN(c3nc(-c4cc(Cl)cc(Cl)c4)ns3)CC2)c1
3. FC(F)(F)c1cccc(CCN2CCN(c3nc(-c4cncc(Cl)c4)ns3)CC2)c1

[9.05, 7.68, 8.52]

Bench note: what pEC50 did COc1ccc(C(O)CN2CCN(c3nc(-c4ccc(Cl)cc4)ns3)CC2)cc1 (stereo not drawn) show?
7.79

----------
# Tested on: M17—3TAU(P301L) cells
# assay-summary: Neuroblastoma tauopathy model: inhibition of TAU-induced cytotoxicity (LDH)
# Type: cell-based
# measurement-setup: Homo sapiens, 168 h; inhibition of TAU-induced toxicity (LDH), 7 days differentiation with retinoic acid
# Description: A TAU expression plasmid was constructed by sub-cloning the cDNA encoding for human TAU-P301L protein, wherein proline at position 301 is substituted by a leucine residue, into mammalian expression vector pcDNA3.1 resulting in the plasmid pcDNA3.1-TAUP301L. […] Differentiation of the cells with RA leads to phosphorylation and subsequent aggregation of TAU, inducing a tauopathy in these cells. Cytotoxicity of cells was measured by quantification of lactate dehydrogenase (LDH) levels. […]
pEC50: −log10 of the molar value.
Would you mind labelling by pEC50? At or over 7 is Satisfied, under is Not satisfied.

For orientation, consider the following solved cases.
{"structure-notation": "COc1ccc(CCN2CCN(c3nc(-c4ccc(Cl)cc4)ns3)CC2)cc1", "assay-system": "M17—3TAU(P301L) cells", "group": "Satisfied"}
{"structure-notation": "Clc1ccc(-c2nsc(N3CCN(CC4(c5ccc(Cl)cc5)CC4)CC3)n2)cc1", "assay-system": "M17—3TAU(P301L) cells", "group": "Not satisfied"}
{"structure-notation": "FC(F)(F)c1ccc(CCN2CCN(c3nc(-c4cncc(Cl)c4)ns3)CC2)cc1", "assay-system": "M17—3TAU(P301L) cells", "group": "Not satisfied"}
{"structure-notation": "COc1cc(CCN2CCN(c3nc(-c4cncc(Cl)c4)ns3)CC2)ccn1", "assay-system": "M17—3TAU(P301L) cells", "group": "Satisfied"}
{"structure-notation": "COc1cc(CCN2CCN(c3nc(-c4ccnc(C)c4)ns3)CC2)ccn1", "assay-system": "M17—3TAU(P301L) cells", "group": "Satisfied"}

# evaluate next
Could you verify whether the entry COc1ccc(CCN2CCN(c3nc(-c4ccc(F)c(F)c4)ns3)CC2)cc1 shows pEC50 of no less than 7?
Satisfied
